target: HLA-A*23:01; experiment: IEDB peptide-MHC binding, purified MHC/competitive/fluorescence; filed as Kd, often an IC50 or EC50 that approximates it; bounds were set here for any values at or beyond the usual limits of such assays; details: source organism: Human herpesvirus 4 strain B95-8
test.readout: Kd (nM)
Provide the reading as a plain figure in nM.

Can you look up the measured Kd of VSFIEFVGW for me? 62.9

====

target: HLA-A*24:02; assay: IEDB peptide-MHC binding, purified MHC/competitive/fluorescence; bounds were set here for any values at or beyond the usual limits of such assays; details: source organism: Variola virus
test.readout: pIC50
Please keep in mind that pIC50 is minus log10 of the molar concentration; only the number is needed.

{"columns": ["sequence.entry", "test.readout", "measured.number"],
 "data": [
  ["KVFLPNPAF", "pIC50", 5.01]
]}

Now take the following sequence into account.
Can you look up the measured pIC50 of PVVLTGGTG for me? 4.16

====

biological target: HLA-B*15:02; assay: IEDB peptide-MHC binding, purified MHC/competitive/fluorescence; filed as Kd, often an IC50 or EC50 that approximates it; bounds were set here for any values at or beyond the usual limits of such assays; settings: source organism: Corynebacterium efficiens
test.readout: Kd

Can you look up the measured Kd of VQLQEYDTY for me? ≥ 20 µM

====

pKd: recorded values
molecular target: HLA-B*18:01; assay: IEDB peptide-MHC binding, purified MHC/competitive/radioactivity; filed as Kd, often an IC50 or EC50 that approximates it; bounds were set here for any values at or beyond the usual limits of such assays; details: source organism: Mammarenavirus brazilense
Please keep in mind that pKd is minus log10 of the molar concentration; only the number is needed.

{"columns": ["sequence.entry", "target.entity", "pKd"],
 "data": [
  ["HENKNATWCL", "HLA-B*18:01", 4.78]
]}

Can you look up the measured pKd of YDQLLDSSL for me? 4.81

====

molecular target: HLA-A*68:23; test: IEDB peptide-MHC binding, purified MHC/competitive/fluorescence; filed as Kd, often an IC50 or EC50 that approximates it; bounds were set here for any values at or beyond the usual limits of such assays; details: source organism: human gammaherpesvirus 4
pKd: −log10 of the molar value.
test.readout: pKd

Can you look up the measured pKd of EVFFGLSRY for me? ≥ 10.00

====

molecular target: HLA-A*02:03; assay: IEDB peptide-MHC binding, purified MHC/competitive/radioactivity; filed as Kd, often an IC50 or EC50 that approximates it; bounds were set here for any values at or beyond the usual limits of such assays; conditions: source organism: Lymphocytic choriomeningitis virus (strain Armstrong)
test.readout: Kd

Can you look up the measured Kd of HNASDFYGL for me? ≥ 78.1 µM

====

target: HLA-B*18:01; experiment: IEDB peptide-MHC binding, purified MHC/competitive/fluorescence; filed as Kd, often an IC50 or EC50 that approximates it; bounds were set here for any values at or beyond the usual limits of such assays; details: source organism: Staphylococcus aureus subsp. aureus N315
pKd: −log10 of the molar value.
test.readout: pKd

Can you look up the measured pKd of VILNYIPVL for me? ≤ 4.70

====

target: HLA-A*03:01; experiment: IEDB peptide-MHC binding, purified MHC/direct/fluorescence; filed as Kd, often an IC50 or EC50 that approximates it; bounds were set here for any values at or beyond the usual limits of such assays; conditions: source organism: Bacillus anthracis
test.readout: Kd

Can you look up the measured Kd of PRFGSCYFL for me? ≥ 20 µM

====

biological target: HLA-B*44:02; test: IEDB peptide-MHC binding, purified MHC/competitive/radioactivity; filed as Kd, often an IC50 or EC50 that approximates it; bounds were set here for any values at or beyond the usual limits of such assays; conditions: source organism: Lymphocytic choriomeningitis virus (strain Armstrong)
test.readout: Kd (µM)
Provide the reading as a plain figure in µM.

Can you look up the measured Kd of IEVALRTLLL for me? 9.31

====

biological target: HLA-A*02:01; assay: IEDB peptide-MHC binding, purified MHC/direct/fluorescence; filed as Kd, often an IC50 or EC50 that approximates it; bounds were set here for any values at or beyond the usual limits of such assays; conditions: source organism: Camelpox virus M-96
test.readout: Kd

Can you look up Kd on HLA-A*02:01 for SQEDNHFSL ? ≥ 20 µM

====

target: HLA-A*02:19; experiment: IEDB peptide-MHC binding, purified MHC/direct/fluorescence; filed as Kd, often an IC50 or EC50 that approximates it; bounds were set here for any values at or beyond the usual limits of such assays; settings: source organism: Bacillus cereus G9842
test.readout: Kd

{"columns": ["sequence.entry", "Kd"],
 "data": [
  ["TQIPRQMVL", "≥ 20 µM"]
]}

Now take the following sequence into account.
Can you look up the measured Kd of MFKNFPFFK for me? ≥ 20 µM

====

molecular target: HLA-B*15:09; experiment: IEDB peptide-MHC binding, purified MHC/direct/fluorescence; filed as Kd, often an IC50 or EC50 that approximates it; bounds were set here for any values at or beyond the usual limits of such assays; details: source organism: West Nile virus
test.readout: Kd (nM)
Provide the reading as a plain figure in nM.

Can you look up the measured Kd of AHYEEDVNL for me? 1800

====

target: HLA-A*26:01; assay: IEDB peptide-MHC binding, purified MHC/competitive/radioactivity; filed as Kd, often an IC50 or EC50 that approximates it; bounds were set here for any values at or beyond the usual limits of such assays; details: source organism: Dengue virus 2 Jamaica/1409/1983
pKd: recorded values
Please keep in mind that pKd is minus log10 of the molar concentration; only the number is needed.

{"columns": ["sequence.entry", "target.entity", "pKd"],
 "data": [
  ["TVMDIISRR", "HLA-A*26:01", 5.57],
  ["ATMTDDIGM", "HLA-A*26:01", 5.08],
  ["EVKKQRAGV", "HLA-A*26:01", 5.04]
]}

Now take the following sequence into account.
Can you look up pKd on HLA-A*26:01 for HVTRGAVLM ? 5.31

====

molecular target: HLA-B*39:01; assay: IEDB peptide-MHC binding, purified MHC/direct/fluorescence; filed as Kd, often an IC50 or EC50 that approximates it; bounds were set here for any values at or beyond the usual limits of such assays; details: source organism: Burkholderia mallei ATCC 23344
test.readout: Kd

Can you look up Kd on HLA-B*39:01 for AVAVARVAA ? ≥ 20 µM

====

target: HLA-A*02:16; assay: IEDB peptide-MHC binding, purified MHC/direct/fluorescence; filed as Kd, often an IC50 or EC50 that approximates it; bounds were set here for any values at or beyond the usual limits of such assays; settings: source organism: Zaire ebolavirus
test.readout: Kd

{"columns": ["sequence.entry", "Kd"],
 "data": [
  ["LSDLCNFLV", "≥ 20 µM"]
]}

Can you look up the measured Kd of HLPGFGTAF for me? ≥ 20 µM

====

molecular target: HLA-B*27:05; assay: IEDB peptide-MHC binding, purified MHC/direct/fluorescence; filed as Kd, often an IC50 or EC50 that approximates it; bounds were set here for any values at or beyond the usual limits of such assays; conditions: source organism: Bacillus anthracis
pKd: −log10 of the molar value.
test.readout: pKd

Can you look up the measured pKd of PRFGSCYFL for me? ≤ 4.70

====

target: HLA-A*68:02; test: IEDB peptide-MHC binding, purified MHC/direct/fluorescence; filed as Kd, often an IC50 or EC50 that approximates it; bounds were set here for any values at or beyond the usual limits of such assays; settings: source organism: Mycobacterium tuberculosis str. Haarlem
pKd: −log10 of the molar value.
test.readout: pKd

Can you look up pKd on HLA-A*68:02 for LPVEYLQVP ? ≤ 4.70

====

target: HLA-A*11:01; experiment: IEDB peptide-MHC binding, purified MHC/direct/fluorescence; filed as Kd, often an IC50 or EC50 that approximates it; bounds were set here for any values at or beyond the usual limits of such assays; settings: source organism: Vibrio parahaemolyticus
pKd: −log10 of the molar value.
test.readout: pKd

Can you look up the measured pKd of EVDEGSDMM for me? ≤ 4.70

====

target: HLA-A*26:01; test: IEDB peptide-MHC binding, purified MHC/competitive/fluorescence; filed as Kd, often an IC50 or EC50 that approximates it; bounds were set here for any values at or beyond the usual limits of such assays; conditions: source organism: Orthohantavirus negraense
test.readout: Kd

Can you look up the measured Kd of RRFTQAIYD for me? ≥ 20 µM

====

molecular target: HLA-B*54:01; assay: IEDB peptide-MHC binding, purified MHC/competitive/radioactivity; filed as Kd, often an IC50 or EC50 that approximates it; bounds were set here for any values at or beyond the usual limits of such assays; settings: source organism: SARS coronavirus Tor2
test.readout: pKd
Please keep in mind that pKd is minus log10 of the molar concentration; only the number is needed.

Solved entries (count: 2):
{"columns": ["sequence.entry", "pKd"],
 "data": [
  ["LPYPDPSRIL", 5.02],
  ["IPKGIMMNV", 7.83]
]}

Now take the following sequence into account.
Can you look up the measured pKd of FPLKLRGTAV for me? 8.97
